- study_system: FGFR1 (Homo sapiens (Human))
- Sequence (P11362 22-822): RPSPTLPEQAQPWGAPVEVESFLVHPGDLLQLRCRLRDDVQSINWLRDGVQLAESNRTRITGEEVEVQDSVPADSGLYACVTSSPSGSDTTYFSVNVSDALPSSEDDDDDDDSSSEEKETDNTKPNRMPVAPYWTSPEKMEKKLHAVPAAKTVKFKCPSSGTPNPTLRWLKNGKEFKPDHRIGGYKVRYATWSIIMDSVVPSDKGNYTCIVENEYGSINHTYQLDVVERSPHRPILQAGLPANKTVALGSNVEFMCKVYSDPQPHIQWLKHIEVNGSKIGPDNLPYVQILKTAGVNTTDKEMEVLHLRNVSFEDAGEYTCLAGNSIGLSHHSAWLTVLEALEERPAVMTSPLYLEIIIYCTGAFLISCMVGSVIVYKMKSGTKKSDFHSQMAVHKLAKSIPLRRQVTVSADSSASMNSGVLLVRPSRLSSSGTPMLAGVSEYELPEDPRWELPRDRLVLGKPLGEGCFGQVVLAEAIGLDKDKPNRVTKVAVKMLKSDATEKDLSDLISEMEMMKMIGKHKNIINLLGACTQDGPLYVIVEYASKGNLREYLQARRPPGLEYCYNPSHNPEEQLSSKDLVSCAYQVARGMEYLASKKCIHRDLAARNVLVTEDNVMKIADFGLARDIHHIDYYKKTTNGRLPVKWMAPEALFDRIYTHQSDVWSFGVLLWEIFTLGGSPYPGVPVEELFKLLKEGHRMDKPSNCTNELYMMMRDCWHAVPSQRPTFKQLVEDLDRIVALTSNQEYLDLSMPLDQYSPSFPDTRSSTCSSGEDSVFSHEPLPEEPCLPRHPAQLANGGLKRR
- assay_remarks: FGFR Enzymatic Assay (FRET peptide phosphorylation), FGFR1
- condition_parameters: read-out: FGFR1 IC50; pre-incubated for 4 hours
Could you please report measured IC50 for the items listed next?

Qu. Query for FGFR1 (Homo sapiens (Human)): what IC50 does the record show for COc1cc(OC)c(F)c(N2Cc3cnc(-c4cnn(C)c4)cc3C3(CC3)C2=O)c1F [Example 186] ?
Ans. < 10 nM

Qu. Query for FGFR1 (Homo sapiens (Human)): what IC50 does the record show for COc1cc(OC)c(F)c(N2Cc3cnc(-c4cnn(CC5CN(C(C)=O)C5)c4)cc3C3(CC3)C2=O)c1F [Example 167] ?
Ans. < 10 nM

Qu. Query for FGFR1 (Homo sapiens (Human)): what IC50 does the record show for COc1cc(OC)c(F)c(N2Cc3cnc(-c4nn(CC5CCOCC5)cc4C#N)cc3C3(CC3)C2=O)c1F [Example 173] ?
Ans. > 200 nM

Qu. Query for FGFR1 (Homo sapiens (Human)): what IC50 does the record show for COc1cc(OC)c(F)c(N2Cc3cnc(-c4cn(C)nc4C)cc3N(Cc3ccccn3)C2=O)c1F [Example 94] ?
Ans. < 10 nM

---

- study_system: FGFR3 enzyme (Homo sapiens (Human), UniProt P22607)
- Sequence (P22607 23-806): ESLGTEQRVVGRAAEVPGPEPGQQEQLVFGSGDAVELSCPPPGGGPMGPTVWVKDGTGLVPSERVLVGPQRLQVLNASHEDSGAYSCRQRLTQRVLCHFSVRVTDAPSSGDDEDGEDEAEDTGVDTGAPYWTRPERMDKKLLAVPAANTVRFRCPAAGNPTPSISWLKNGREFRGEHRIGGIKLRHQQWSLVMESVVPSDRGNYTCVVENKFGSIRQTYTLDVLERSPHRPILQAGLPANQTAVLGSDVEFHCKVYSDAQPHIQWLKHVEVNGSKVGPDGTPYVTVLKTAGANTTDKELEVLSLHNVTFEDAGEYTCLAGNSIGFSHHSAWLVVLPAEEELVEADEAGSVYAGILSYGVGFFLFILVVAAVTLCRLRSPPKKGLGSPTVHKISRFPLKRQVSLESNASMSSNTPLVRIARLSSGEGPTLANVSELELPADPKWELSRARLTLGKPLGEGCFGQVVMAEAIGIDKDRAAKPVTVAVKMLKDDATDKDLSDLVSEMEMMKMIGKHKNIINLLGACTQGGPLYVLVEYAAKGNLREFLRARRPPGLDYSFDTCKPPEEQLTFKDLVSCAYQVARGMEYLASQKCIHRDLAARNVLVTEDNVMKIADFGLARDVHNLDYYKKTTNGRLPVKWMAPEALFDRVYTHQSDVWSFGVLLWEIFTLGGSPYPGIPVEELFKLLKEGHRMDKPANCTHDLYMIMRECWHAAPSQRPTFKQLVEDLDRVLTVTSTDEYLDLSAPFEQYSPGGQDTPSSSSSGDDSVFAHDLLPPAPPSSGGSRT
- assay_remarks: FGFR Enzymatic Assay (FRET peptide phosphorylation), FGFR3
- Format: biochemical
- condition_parameters: pre-incubated for 5 to 10 minutes; read-out: FGFR3 IC50
pIC50: −log10 of the molar value.
Could you please report measured pIC50 for the items listed next?

Qu. Item COc1cc(CN2C(=O)N(c3c(F)c(OC)cc(OC)c3F)Cc3cnc(-c4cn(C)nc4C)cc32)ccn1 [Example 58] has what recorded pIC50?
Ans. > 8.00

Qu. Item COc1cc(OC)c(F)c(N2Cc3cnc(-c4cncc(N5CCOCC5)c4)cc3C3(CC3)C2=O)c1F [Example 6] has what recorded pIC50?
Ans. 6.70 to 7.52

Qu. Item COc1cc(OC)c(F)c(N2Cc3cnc(-c4cc(N)cnc4C)cc3C3(CC3)C2=O)c1F [Example 7] has what recorded pIC50?
Ans. < 6.70

Qu. Item CCN1C(=O)N(c2c(F)c(OC)cc(OC)c2F)Cc2cnc(-c3cn(CC)nc3C)cc21 [Example 168] has what recorded pIC50?
Ans. > 8.00

Qu. Item COc1cc(OC)c(F)c(N2Cc3cnc(-c4cn(C)nc4C)cc3N(c3ccc4c(c3)CC(=O)N4)C2=O)c1F [Example 119] has what recorded pIC50?
Ans. > 8.00

Qu. Item COc1cc(OC)c(F)c(N2Cc3cnc(-c4cncc(CN5CCOCC5)c4)cc3C3(CC3)C2=O)c1F [Example 16] has what recorded pIC50?
Ans. 6.70 to 7.52

Qu. Item CCOc1cc(CN2C(=O)N(c3c(F)c(OC)cc(OC)c3F)Cc3cnc(-c4cn(C)nc4C)cc32)ccn1 [Example 116] has what recorded pIC50?
Ans. > 8.00

Qu. Item CCN1C(=O)N(c2c(F)c(OC)cc(OC)c2F)Cc2cnc(-c3cnn(C)c3)cc21 [Example 169] has what recorded pIC50?
Ans. > 8.00

Qu. Item COc1cc(OC)c(F)c(N2Cc3cnc(-c4cn(C)nc4C)cc3N(Cc3ccncc3)C2=O)c1F [Example 69] has what recorded pIC50?
Ans. > 8.00

Qu. Item COc1cc(OC)c(F)c(N2Cc3cnc(-c4cncc(F)c4)cc3C3(CC3)C2=O)c1F [Example 5] has what recorded pIC50?
Ans. 7.52 to 8.00

Qu. Item COc1ccc(CN2C(=O)N(c3c(F)c(OC)cc(OC)c3F)Cc3cnc(-c4cn(C)nc4C)cc32)cn1 [Example 59] has what recorded pIC50?
Ans. 7.52 to 8.00

Qu. Item COc1cc(OC)c(F)c(N2Cc3cnc(-c4cc(N)ccc4C#N)cc3C3(CC3)C2=O)c1F [Example 3] has what recorded pIC50?
Ans. < 6.70

Qu. Item COCCN1C(=O)N(c2c(F)c(OC)cc(OC)c2F)Cc2cnc(-c3ccc(C4(C#N)CCC4)nc3)cc21 [Example 139] has what recorded pIC50?
Ans. > 8.00

Qu. Item COc1cc(OC)c(F)c(N2Cc3cnc(-c4cn(C)nc4C)cc3N(Cc3ccc4c(c3)nnn4C)C2=O)c1F [Example 118] has what recorded pIC50?
Ans. 7.52 to 8.00

Qu. Item COc1cc(OC)c(F)c(N2Cc3cnc(-c4cn(C)nc4C)cc3N(Cc3cnn(CC4CC4)c3)C2=O)c1F [Example 126] has what recorded pIC50?
Ans. > 8.00

---

- study_system: UniProtKB P22607
- assay_remarks: FGFR Enzymatic Assay (FRET peptide phosphorylation), FGFR3
- Type: biochemical
- condition_parameters: FGFR3 selectivity; pre-incubated for 4 hours
Could you please report measured FGFR4/FGFR3 IC50 ratio for the items listed next?

Qu. Query for UniProtKB P22607: what FGFR4/FGFR3 IC50 ratio does the record show for "COc1cc(OC)c(F)c(N2Cc3cnc(-c4cn(C)nc4C)cc3N(C3CCN(S(C)(=O)=O)CC3)C2=O)c1F" ?
Ans. >3

Qu. Query for UniProtKB P22607: what FGFR4/FGFR3 IC50 ratio does the record show for "COc1cc(OC)c(F)c(N2Cc3cnc(-c4cn(C)nc4C)cc3N(c3ccc4ccncc4c3)C2=O)c1F" ?
Ans. >5

Qu. Query for UniProtKB P22607: what FGFR4/FGFR3 IC50 ratio does the record show for "COc1cc(OC)c(F)c(N2Cc3cnc(-c4cn(C)nc4C)cc3N(C3(C#N)CC3)C2=O)c1F" ?
Ans. >5

Qu. Query for UniProtKB P22607: what FGFR4/FGFR3 IC50 ratio does the record show for "COc1cc(OC)c(F)c(N2Cc3cnc(-c4cnn(CCC5CCN(S(C)(=O)=O)CC5)c4)cc3C3(CC3)C2=O)c1F" ?
Ans. >3

Qu. Query for UniProtKB P22607: what FGFR4/FGFR3 IC50 ratio does the record show for COc1cc(OC)c(F)c(N2Cc3cnc(-c4cnn(CC5CCCS(=O)(=O)N5)c4)cc3C3(CC3)C2=O)c1F (stereo not drawn) ?
Ans. >1

Qu. Query for UniProtKB P22607: what FGFR4/FGFR3 IC50 ratio does the record show for "CCN1C(=O)N(c2c(F)c(OC)cc(OC)c2F)Cc2cnc(-c3ccc(C4(C#N)CCC4)cc3)cc21" ?
Ans. >10

Qu. Query for UniProtKB P22607: what FGFR4/FGFR3 IC50 ratio does the record show for "COc1cc(OC)c(F)c(N2Cc3cnc(-c4cn(C)nc4C)cc3N(c3ccc(CC#N)cc3)C2=O)c1F" ?
Ans. >10

Qu. Query for UniProtKB P22607: what FGFR4/FGFR3 IC50 ratio does the record show for "COc1cc(OC)c(F)c(N2Cc3cnc(-c4cn(C)nc4C)cc3N(c3ccc4nc(C)oc4c3)C2=O)c1F" ?
Ans. >3

Qu. Query for UniProtKB P22607: what FGFR4/FGFR3 IC50 ratio does the record show for "COc1cc(OC)c(F)c(N2Cc3cnc(-c4cn(C)nc4C)cc3N(c3ccccc3F)C2=O)c1F" ?
Ans. >5

Qu. Query for UniProtKB P22607: what FGFR4/FGFR3 IC50 ratio does the record show for "COc1cc(OC)c(F)c(N2Cc3cnc(-c4ccncc4)cc3C3(CC3)C2=O)c1F" ?
Ans. >3

Qu. Query for UniProtKB P22607: what FGFR4/FGFR3 IC50 ratio does the record show for "COc1cc(OC)c(F)c(N2Cc3cnc(-c4cn(C)nc4C)cc3N(C[C@H]3CCOC3)C2=O)c1F" ?
Ans. >3

Qu. Query for UniProtKB P22607: what FGFR4/FGFR3 IC50 ratio does the record show for "COc1cc(OC)c(F)c(N2Cc3cnc(-c4ccc(C5(C#N)CCC5)nc4)cc3N(c3ccncn3)C2=O)c1F" ?
Ans. >10

Qu. Query for UniProtKB P22607: what FGFR4/FGFR3 IC50 ratio does the record show for COc1cc(OC)c(F)c(N2Cc3cnc(-c4cn(C5CCN(C)C5)nc4C)cc3C3(CC3)C2=O)c1F (stereo not drawn) ?
Ans. >3

Qu. Query for UniProtKB P22607: what FGFR4/FGFR3 IC50 ratio does the record show for "CCN1C(=O)N(c2c(F)c(OC)cc(OC)c2F)Cc2cnc(-c3ccc(C(C)(C)C#N)nc3)cc21" ?
Ans. >5

Qu. Query for UniProtKB P22607: what FGFR4/FGFR3 IC50 ratio does the record show for "COc1cc(OC)c(F)c(N2Cc3cnc(-c4cn(CCC#N)nc4C)cc3C3(CC3)C2=O)c1F" ?
Ans. >1

---

- study_system: FGFR2 (Homo sapiens (Human))
- Sequence (P21802 22-821): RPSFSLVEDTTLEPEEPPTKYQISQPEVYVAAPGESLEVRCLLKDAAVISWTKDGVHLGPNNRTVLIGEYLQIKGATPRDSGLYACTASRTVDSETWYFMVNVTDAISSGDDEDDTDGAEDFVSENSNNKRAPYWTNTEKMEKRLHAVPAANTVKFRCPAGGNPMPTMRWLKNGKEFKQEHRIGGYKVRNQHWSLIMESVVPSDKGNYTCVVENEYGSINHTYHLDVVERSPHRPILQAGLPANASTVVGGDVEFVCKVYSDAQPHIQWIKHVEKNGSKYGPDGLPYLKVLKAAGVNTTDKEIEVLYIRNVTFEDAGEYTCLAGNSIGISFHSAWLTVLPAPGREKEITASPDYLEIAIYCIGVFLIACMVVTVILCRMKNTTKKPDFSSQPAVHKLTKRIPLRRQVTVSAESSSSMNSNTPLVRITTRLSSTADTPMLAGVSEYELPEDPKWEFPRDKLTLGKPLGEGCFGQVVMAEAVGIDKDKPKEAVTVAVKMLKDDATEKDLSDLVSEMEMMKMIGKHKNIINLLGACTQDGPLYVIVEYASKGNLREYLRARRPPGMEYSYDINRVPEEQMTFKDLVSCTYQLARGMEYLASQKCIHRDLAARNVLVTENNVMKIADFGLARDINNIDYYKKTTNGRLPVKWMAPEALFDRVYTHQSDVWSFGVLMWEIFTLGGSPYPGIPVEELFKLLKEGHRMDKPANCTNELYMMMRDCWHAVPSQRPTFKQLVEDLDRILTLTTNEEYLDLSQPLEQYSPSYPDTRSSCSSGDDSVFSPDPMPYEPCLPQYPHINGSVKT
- assay_remarks: FGFR Enzymatic Assay (FRET peptide phosphorylation), FGFR2
- Assay type: biochemical
- condition_parameters: pre-incubated for 5 to 10 minutes
pIC50: −log10 of the molar value.
Could you please report measured pIC50 for the items listed next?

Qu. Item "COc1cc(OC)c(F)c(N2Cc3cnc(-c4cncc(N5CCOCC5)c4)cc3C3(CC3)C2=O)c1F" has what recorded pIC50?
Ans. < 6.70

Qu. Item "COc1cc(CN2C(=O)N(c3c(F)c(OC)cc(OC)c3F)Cc3cnc(-c4cn(C)nc4C)cc32)ccn1" has what recorded pIC50?
Ans. > 8.00

Qu. Item "COc1cc(OC)c(F)c(N2Cc3cnc(-c4cn(C)nc4C)cc3N(Cc3ccncc3)C2=O)c1F" has what recorded pIC50?
Ans. > 8.00

Qu. Item "COc1cc(OC)c(F)c(N2Cc3cnc(-c4cnn(C)c4)cc3C3(CC3)C2=O)c1F" has what recorded pIC50?
Ans. > 8.00

Qu. Item "COc1cc(OC)c(F)c(N2Cc3cnc(-c4cncc(C(=O)N5CCOCC5)c4)cc3C3(CC3)C2=O)c1F" has what recorded pIC50?
Ans. 6.70 to 7.52

Qu. Item "COc1cc(OC)c(F)c(N2Cc3cnc(-c4ccn(C)n4)cc3N(c3ccc(C#N)cc3)C2=O)c1F" has what recorded pIC50?
Ans. 6.70 to 7.52

Qu. Item "COc1cc(OC)c(F)c(N2Cc3cnc(-c4cc(N)ccc4C)cc3C3(CC3)C2=O)c1F" has what recorded pIC50?
Ans. < 6.70
